# target-entity: TfCut2 (Thermobifida fusca, UniProt Q6A0I4)
# Sequence (Q6A0I4 41-301): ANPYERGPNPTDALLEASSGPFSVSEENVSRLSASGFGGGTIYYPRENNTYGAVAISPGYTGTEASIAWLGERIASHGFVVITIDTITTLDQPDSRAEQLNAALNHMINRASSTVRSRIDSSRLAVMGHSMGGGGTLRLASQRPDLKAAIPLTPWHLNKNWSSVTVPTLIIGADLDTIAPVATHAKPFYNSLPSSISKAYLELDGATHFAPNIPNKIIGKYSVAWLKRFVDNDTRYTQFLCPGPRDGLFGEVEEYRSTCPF
readout: Ki (mM)
Give bare numbers, in mM.

Request the reported Ki associated with O=S(=O)(O)CCCN1CCOCC1
80

// data source = paper PMC5011490
